- targetEntity: E3 ubiquitin-protein ligase XIAP (Homo sapiens) (UniProt P98170)
- Sequence (P98170 whole entry, looked up): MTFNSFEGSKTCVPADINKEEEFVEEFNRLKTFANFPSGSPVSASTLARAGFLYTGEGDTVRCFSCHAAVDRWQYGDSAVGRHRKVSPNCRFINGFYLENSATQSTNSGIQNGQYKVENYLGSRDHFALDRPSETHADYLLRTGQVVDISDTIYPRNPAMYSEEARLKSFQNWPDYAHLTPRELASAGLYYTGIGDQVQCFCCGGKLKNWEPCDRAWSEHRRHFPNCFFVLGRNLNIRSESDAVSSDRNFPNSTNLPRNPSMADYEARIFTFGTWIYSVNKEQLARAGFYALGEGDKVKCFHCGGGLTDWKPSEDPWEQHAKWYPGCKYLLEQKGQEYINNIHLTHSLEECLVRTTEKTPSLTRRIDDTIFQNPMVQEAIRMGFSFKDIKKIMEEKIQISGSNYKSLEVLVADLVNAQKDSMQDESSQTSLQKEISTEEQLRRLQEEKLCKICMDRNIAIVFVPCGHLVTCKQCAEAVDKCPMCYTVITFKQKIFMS
- protocolSummary: XIAP binders, primary screen, biophysical, small-molecule microarray, fluorescence 635 nm (AID 1181);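 also: score merges 667 nm emission and signal to noise over triplicate slides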
- appliedConditions: small-molecule microarray binding, higher = more signal
parameterMeasured: composite z-score
Give bare numbers.

For orientation, consider the following solved cases.
- smilesRepresentation: "[N-]=[N+]=NCc1ccccc1C[C@@]1(C(=O)N2CCOCC2)N=C(c2ccc(OCCCO)cc2)O[C@@H]1c1ccccc1CN=[N+]=[N-]"
  composite z-score: -0.138
- smilesRepresentation: "O=C1O[C@H](c2ccccc2)[C@H](c2ccccc2)N2[C@H]1[C@@H](C(=O)O)[C@]1(C(=O)Nc3ccc(C#CC4=CCCCC4)cc31)[C@H]2c1ccc(OCCO)cc1"
  composite z-score: -0.271
- smilesRepresentation: "CO[C@H]1O[C@H](CO)[C@@H](OC(=O)Nc2ccc3c(c2)OCO3)[C@H](OC(=O)Nc2ccccc2)[C@H]1OC(=O)Nc1ccccc1"
  composite z-score: 0.137

Provide reported composite z-score for each item, in the same order as listed.
1. COC(=O)[C@@]1(Cc2ccc(OC)cc2)[C@H]2c3cc(C(=O)N(C)C)n(Cc4c(OC)[nH]cc(C)c4=O)c3C[C@H]2CN1C(=O)c1ccccc1
2. C[C@]1(C(=O)NCc2ccccc2)c2ccccc2C(=O)N(Cc2cc(F)cc(C(F)(F)F)c2)[C@H]1c1ccc(CO)cc1
3. C=CCOC(=O)[C@H]1[C@@H]2C(=O)O[C@@H](c3ccccc3)[C@@H](c3ccccc3)N2[C@@H](c2ccc(OCCOC(=O)[C@@H]3C[C@@H]4C(=O)NCC(=O)N4[C@@H]3c3ccc(O)cc3)cc2)[C@]12C(=O)Nc1ccccc12
4. O=C(CS)NCCCCCCNC(=O)[C@H]1C[C@H]2C(=O)N3CCC[C@H]3C(=O)N2[C@H]1c1cccc(OCCO)c1

Result:
[0.295, 0.0256, -0.121, 0.104]

Entry source: PubChem BioAssay
